inhibition at 10 µM: recorded values
target: UniProtKB P27338; assay: Inhibition of recombinant human MAO-B at 10 uM using kynuramine as substrate after 30 mins by fluorescence assay relative to control; details: 0.5 h
Sequence (P27338 whole entry): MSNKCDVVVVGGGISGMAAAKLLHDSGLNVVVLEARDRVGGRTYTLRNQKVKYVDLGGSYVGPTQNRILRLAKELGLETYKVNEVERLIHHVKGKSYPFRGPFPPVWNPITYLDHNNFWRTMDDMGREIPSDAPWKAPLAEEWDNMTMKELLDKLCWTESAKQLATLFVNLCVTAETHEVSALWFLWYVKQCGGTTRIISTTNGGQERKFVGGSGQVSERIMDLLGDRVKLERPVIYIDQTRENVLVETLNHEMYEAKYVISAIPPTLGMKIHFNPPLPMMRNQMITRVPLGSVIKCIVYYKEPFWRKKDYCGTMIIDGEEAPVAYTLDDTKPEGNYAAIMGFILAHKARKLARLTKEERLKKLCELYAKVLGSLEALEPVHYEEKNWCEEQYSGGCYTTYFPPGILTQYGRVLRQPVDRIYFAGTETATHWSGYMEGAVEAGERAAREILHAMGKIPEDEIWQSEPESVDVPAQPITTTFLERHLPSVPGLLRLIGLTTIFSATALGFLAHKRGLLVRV
State the answer as a number, implicitly in %.

compound	inhibition at 10 µM / %
CCN(CCCCCCn1c(=O)c2cc(OC)c(OC)cc2[s+]1[O-])Cc1ccccc1 (stereo not drawn)	14.6

Fill in the blank: the reported inhibition at 10 µM of COc1cc2s[nH]c(=O)c2cc1OC is ____. 14

Do the same for CCN(CCCn1sc2cc(OC)c(OC)cc2c1=O)Cc1ccccc1 please 46.3

Do the same for COc1cc2sn(CCCN(C)Cc3ccccc3)c(=O)c2cc1OC please 44.4

Do the same for CCN(CCCn1sc2cc(OC)c(OC)cc2c1=O)Cc1ccc(N(C)C)cc1 please 40.1

Do the same for CCN(CCCCCCn1sc2cc(OC)c(OC)cc2c1=O)Cc1ccccc1OC please 43.8
